Can you tell me MIC for the items I'm about to list?
Tested on: Mtb mc^27092 pMV261- ethA
Experiment: microbe, parasite or virus in culture
Type: cell-based
Conditions: Mycobacterium tuberculosis; mc^27092 pMV261- ethA; REMA; read-out: Mtb MIC95
Answers are plain numbers, in µg/mL.

Some solved cases for reference:
[[record]]
molecule = "CO[C@H]1/C=C/O[C@@]2(C)Oc3c(C)c(O)c4c(O)c(c(/C=N/N5CCN(C)CC5)c(O)c4c3C2=O)NC(=O)/C(C)=C\\C=C\\[C@H](C)[C@H](O)[C@@H](C)[C@@H](O)[C@@H](C)[C@H](OC(C)=O)[C@@H]1C [RIF, rifampicin]"
attribute_measured = "MIC"
units_text = "µg/mL"
value = 0.06

[[record]]
molecule = "CC[C@@H](CO)NCCN[C@@H](CC)CO [EMB, Ethambutol]"
attribute_measured = "MIC"
units_text = "µg/mL"
value = 2.09

[[record]]
molecule = "CC(C)CCOc1ccc(NC(=S)NC2C3CC4CC(C3)CC2C4)cc1 (stereo not drawn) [Ad-2-ISO]"
attribute_measured = "MIC"
units_text = "µg/mL"
value = 2.63

[[record]]
molecule = "NNC(=O)c1ccncc1 [INH, isoniazid]"
attribute_measured = "MIC"
units_text = "µg/mL"
value = 0.04

[[record]]
molecule = "CC(C)CCOc1ccc(NC(=S)NC23CC4CC(CC(C4)C2)C3)cc1 [Ad-1-ISO]"
attribute_measured = "MIC"
units_text = "µg/mL"
value = 1.2


Below: the item to evaluate.
Query CC(C)CCOc1ccc(NC(=S)Nc2ccc(OCCC(C)C)cc2)cc1 [ISO, 4,4′-diisoamyloxydiphenylthiourea] yields MIC of 0.09
